Molecular target: T1, IL17-F (Interleukin member of the highly homologous IL-17 family) (UniProt Q96PD4 31-163)
T1 sequence (looked up): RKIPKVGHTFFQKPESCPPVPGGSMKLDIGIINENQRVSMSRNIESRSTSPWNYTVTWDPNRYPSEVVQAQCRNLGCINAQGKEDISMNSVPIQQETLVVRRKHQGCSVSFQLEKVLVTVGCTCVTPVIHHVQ
pEC50: −log10 of the molar value.
REPORTED METRIC: pEC50

* RRATS [Cy(RRATS-click)] | 7.18
